Origin of the recorded values: patent US20240247080A1

Target: human GLP-1 receptor (human, UniProt P43220 24-463)
Assay: cell-based or functional assay
Starred links: 1 amine or outer side, 2 acyl side, 3 side chain; linkers in the order of their positions; H or OH if unused. Non-standard residues stand in square brackets, D forms with d. Groups on a side chain read outwards from the residue. No end group written: not given here. *: point of attachment. C20 diacid = O=C(O)CCCCCCCCCCCCCCCCCCC(=O)*; C18 diacid = O=C(O)CCCCCCCCCCCCCCCCC(=O)*; γGlu = O=C(O)[C@H](CCC(=O)[*:2])N[*:1]; AEEA = NCCOCCOCC(=O)O; Aib = CC(C)(N)C(=O)O

binder	EC50 hGLP1R 100% hP (CreLuc) / nM
Y[Aib]EGTFTSDYSI[Aib]LEKQAQ[Aib]EFVEWLIK([AEEA-AEEA-γGlu-γGlu-γGlu-C18 diacid])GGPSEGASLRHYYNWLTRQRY-NH2 (also: TFA salt) [Compound 284]	12.6
Y[Aib]EGTFTSDYSI[Aib]LEKQAQ[Aib]AFIEWLIK([γGlu-γGlu-γGlu-γGlu-C20 diacid])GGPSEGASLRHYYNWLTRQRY-NH2 (also: TFA salt) [Compound 283]	3.86
